- System: NCI-H460 lung
- methodNotes: NCI tumour cell line growth inhibition, 48 h
quantityMeasured: GI50

>>> result("CC(C)(C)c1ccc(NS(=O)(=O)c2ccc3nc(NC(=O)c4cnccn4)[nH]c3c2)cc1")
"2590 nM"
>>> result("CC(=O)c1nc2ccccc2n1CC(=O)c1cccc(Cl)c1")
"360 nM"
>>> result("Cc1nc(Nc2ncc(C(=O)Nc3c(C)cccc3Cl)s2)cc(N2CCN(CCO)CC2)n1")
"8.34 µM [middle of 4 runs]"
>>> result("O=C1OCC2=C1C(c1ccccc1)c1cc3c(cc1N2CCO)OCCO3 (stereo unspecified)")
"193 nM"
>>> result("CCCCCn1c(C)cc(/C=C\\c2ccc3cc(C)ccc3[n+]2C)c1C")
"113 nM"
>>> result("COc1ccc(-c2nn(-c3ccc(NC(=O)Nc4ccc(Cl)c(C(F)(F)F)c4)cc3)cc2-c2ccncc2)cc1Cl")
"1400 nM"
>>> result("CCN(CC)c1ccc(/C=C/C=C2\\NC(=O)NC2=O)cc1")
"3030 nM"
>>> result("CS(=O)(=O)N(c1cc(-c2ccc3ncnc(Nc4cccc(Cl)c4)c3c2)cnc1Cl)S(C)(=O)=O")
"591 nM"
>>> result("Oc1ccc(N=Nc2ccccn2)c(O)c1")
"543 nM"
>>> result("CCSc1ccc(C2C(Br)C(=O)N2c2cc(OC)c(OC)c(OC)c2)cc1 (stereo unspecified)")
"539 nM"
>>> result("COc1ccc2ccc3oc([N+](=O)[O-])cc3c2c1")
"114 nM"
>>> result("C[C@@H]1COCCN1c1cc(C2(O)C[C@H]3CC[C@@H](C2)O3)c2cnn(-c3ccn[nH]3)c2n1 (stereo partly specified)")
"33.4 nM"
>>> result("CC1(C)C(=O)/C(=C\\c2cccnc2)C[C@]2(C)[C@H]3CC[C@@H]4[C@@H](C(=O)/C=C/c5ccncc5)CC[C@@]4(C)[C@]3(C)CC[C@@H]12")
"1900 nM"
>>> result("C=C1C(=O)O[C@H]2[C@H]1CC/C(COC(=O)NCc1ccc(Cn3c(=O)sn(-c4ccccc4)c3=O)cc1)=C\\CC[C@@]1(C)O[C@@H]21")
"3670 nM"
>>> result("CCN(Cc1c(Cl)cccc1Cl)c1ccc(CO)c(Cl)c1")
"171 nM"
>>> result("Cc1ccc(Sc2cc3c(oc2=O)-c2ccccc2OC3O)cc1 (stereo unspecified)")
"22400 nM"
